Test system: NCI-H460 lung
Experiment: NCI tumour cell line growth inhibition, 48 h
measurement.kind: log10(TGI) (log10 of the value in µM)

INSERT INTO measurements (compound, reported) VALUES
  ('O=C1CC(c2ccc(Cl)cc2)C2(C(=O)NC(=S)NC2=O)C(c2ccc(Cl)cc2)C1 (stereo unspecified)', 1.48),
  ('COc1ccc(C=Nc2ccc(-c3nc4ccccc4s3)cc2)cc1OC', 1.83),
  ('C/C(NNC(=O)c1ccccc1O)=C1\C=Nc2ccccc2S1', 1.39),
  ('CN(C)c1ccc(/C=C/C(=O)c2cc(C(C)(C)C)c(O)c(C(C)(C)C)c2)cc1', 0.38),
  ('COc1ccc(-c2nn(-c3cccc(Cl)c3)cc2/C=C2\NC(=S)N(c3ccc(Cl)cc3)C2=O)cc1', 1.26);

----------
Test system: KM20L2 colon
Assay: NCI tumour cell line growth inhibition, 48 h
Catalogue of TGI readings, one per entry.
measurement.kind: TGI

INSERT INTO assay_data (compound, reported) VALUES
  ('CCN(CC)CCNc1c2ccccc2nc2cccc([N+](=O)[O-])c12', '0.0553 µM'),
  ('O=C(CCc1nc(=S)[nH][nH]1)Nc1cc(Cl)ccc1Cl', '> 100 µM'),
  ('O/N=C1/CCC/C1=C\c1ccccc1', '> 100 µM'),
  ('CC(C)OP(=O)(OC(C)C)C(=NCCO)NNc1ccc([N+](=O)[O-])cc1', '> 100 µM'),
  ('COC(=O)C(=O)C(CC(=O)Nc1cc(Cl)ccc1Cl)C(=O)OC (stereo unspecified)', '> 100 µM'),
  ('O=C1NC(=O)C(C(=O)C(=O)Nc2cc(Cl)ccc2Cl)C(=O)N1', '> 100 µM');

----------
Tested on: SK-MEL-28 melanoma
Experiment: NCI tumour cell line growth inhibition, 48 h
measurement.kind: TGI

INSERT INTO results (compound, reported) VALUES
  ('NC1=NN(c2ccccc2)C(=O)C1C(=O)C(=O)Nc1ccc(Cl)cc1 (stereo not given)', '> 100 µM'),
  ('Cc1ccc(S(=O)(=O)N(CC(O)COc2ccccc2)c2c(F)c(F)cc(F)c2F)cc1 (stereo not given)', '36.8 µM'),
  ('Cc1cccc2c(C3=C(c4cn(C)c5ccccc45)C(=O)NC3=O)cn(C)c12', '> 25 µM'),
  ('O=C1C=CC2(CCCCCCC2=O)CC1 (stereo not given)', '> 100 µM'),
  ('CC1=C(C(=O)NNC(=O)Cc2ccccc2)CC(C(=O)NNC(=O)Cc2ccccc2)=C(C)N1', '> 100 µM');

----------
Catalogue of TGI readings, one per entry.
System: NCI-H23 lung
Test: NCI tumour cell line growth inhibition, 48 h
measurement.kind: TGI (µM)

INSERT INTO measurements (molecule, reported_relation, reported) VALUES
  ('C[C@@H](O)[C@@H](C)Oc1nc(Nc2ccc(S(=N)(=O)C3CC3)cc2)ncc1C(F)(F)F (stereo not given in full)', '=', 0.318),
  ('C=CCn1c(-c2cc(C(C)(C)C)c(O)c(C(C)(C)C)c2)cs/c1=N\C(P(=O)(O)O)P(=O)(O)O', '>', 100),
  ('O=C(Nc1cccc(C(F)(F)F)c1)C(=O)C(C(=O)c1ccc(Cl)c(Cl)c1)C1OC(=O)c2ccccc21 (stereo not given)', '>', 100),
  ('COc1ccc2[nH]c(Cl)c(/C=C3/C(=O)Nc4ccccc43)c2c1', '=', 0.688),
  ('CCCCCCCCSC(=O)NCCCC', '>', 100);
